- Tested on: Mus musculus
- assay details: Neurotoxicity in ip dosed Swiss albino mouse assessed as inability of animal to maintain equilibrium on the rod for at least 1 min after 4 hrs by rotarod test
- Type: toxicity, organism-based
- measurement context: in vivo
For each record, write down the corresponding Activity.
Hi, when you answer, please include the unit after the number. Thanks!

### Prompt Query Activity on Mus musculus for Nc1nnc(-c2cccc(Cl)c2Cl)c(N)n1
### Response 100 mg/kg

### Prompt Give recorded Activity with Mus musculus for the following compound: O=C1NC(=O)C(c2ccccc2)(c2ccccc2)N1
### Response 100 mg/kg

### Prompt Give recorded Activity with Mus musculus for the following compound: NNC(=S)NCCCC(=O)O
### Response 300 mg/kg

### Prompt Find the measured Activity: item C/C(=N\NC(=S)NCCCC(=O)O)c1ccc([N+](=O)[O-])cc1 , target or system Mus musculus.
### Response 100 mg/kg

### Prompt Reported Activity for Mus musculus, given O=C(O)CCCNC(=S)NN=C(Cc1ccccc1)Cc1ccccc1 ?
### Response 300 mg/kg

* * *

Kindly supply the reported Activity values for the records listed here.
- Tested on: Mus musculus
- assay details: Neurotoxicity in ip dosed Swiss albino mouse assessed as inability of animal to maintain equilibrium on the rod for at least 1 min after 0.5 hrs by rotarod test
- Format: toxicity, organism-based
- measurement context: in vivo
The reply should be a number in mg/kg, with the unit left off.

### Prompt So what does the record say about Activity for NNC(=S)NCCCC(=O)O ?
### Response 300

### Prompt Please look up its Activity: C/C(=N\NC(=S)NCCCC(=O)O)c1ccc([N+](=O)[O-])cc1
### Response 100

### Prompt Would you mind telling me what Activity value was observed for Nc1nnc(-c2cccc(Cl)c2Cl)c(N)n1 ?
### Response 100

### Prompt Form field: reported Activity of O=C1NC(=O)C(c2ccccc2)(c2ccccc2)N1
### Response 100

### Prompt Activity lookup needed for O=C(O)CCCNC(=S)N/N=C/c1ccc(Cl)cc1 , thanks.
### Response 100

### Prompt What does the data say about its Activity? Entry: O=C(O)CCCNC(=S)N/N=C(\c1ccccc1)c1ccc(Br)cc1
### Response 300

* * *

- Tested on: Mus musculus
- assay details: Anticonvulsant activity in ip dosed Swiss albino mouse assessed as inhibition of subcutaneous pentylenetetrazole-induced seizures administered 30 mins before PTZ challenge measured after 0.5 hrs post PTZ challenge
- Type: functional
readout label: Activity (mg/kg)
Expressed in mg/kg, but write only the number.

### Prompt Returns the measured Activity for the input compound. Input: O=C(O)CCCNC(=S)N/N=C/c1ccc(Cl)cc1
### Response 100

### Prompt What value of Activity has been recorded for this entry: CCC1(C)CC(=O)NC1=O (configuration not stated) [ETHOSUXIMIDE]
### Response 300

### Prompt Bench note: what Activity did O=C(O)CCCNC(=S)N/N=C1\C(=O)Nc2ccccc21 show?
### Response 30

### Prompt So what's the measured Activity for this one? O=C(O)CCCNC(=S)N/N=C/c1ccccc1O
### Response 100

### Prompt Requested field: Activity. Item: C/C(=N\NC(=S)NCCCC(=O)O)c1ccccc1
### Response 300

### Prompt Which Activity reading was recorded for the compound Nc1nnc(-c2cccc(Cl)c2Cl)c(N)n1 ?
### Response 30

### Prompt Field request: Activity | item: O=C(O)CCCNC(=S)NN=C1CCCC1
### Response 100
